Origin of values: patent US20090156509A1

- SYSTEM NAME: HNE (human neutrophil elastase) (Homo sapiens, UniProt P08246)
- Construct: Enzymes PR3 and HNE (HLE) were purchased from Athens Research and Technology (Athens, Ga.) or Elastin Products (Owensville, Mich.)
- Sequence (P08246 30-267): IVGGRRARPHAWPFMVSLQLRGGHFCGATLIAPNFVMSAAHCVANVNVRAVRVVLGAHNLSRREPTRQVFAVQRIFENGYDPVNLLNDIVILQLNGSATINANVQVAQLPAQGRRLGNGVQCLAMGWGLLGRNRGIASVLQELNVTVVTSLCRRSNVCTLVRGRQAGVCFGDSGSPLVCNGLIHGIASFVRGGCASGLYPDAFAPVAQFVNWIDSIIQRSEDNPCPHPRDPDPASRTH
- MEASUREMENT NOTES: HNE enzyme inhibition, kinetic Ki determination
- TEST CONDITIONS: substrate MeO-Suc-Ala-Ala-Pro-Val-pNA, pH 7.6; read-out: Ki (NE)
READOUT: Ki (pM)
Kindly provide the numeric value in pM only, without the unit symbol.

Fill in the blank: the reported Ki of CC(C)[C@H](NC(=O)[C@@H]1CCCN1C(=O)[C@@H](NC(=O)CCCCCNC(=O)c1ccccn1)C(C)C)C(=O)c1nnc(C(C)(C)C)o1 [AI-168] is ____.
200

Fill in the blank: the reported Ki of CC(C)[C@H](NC(=O)[C@@H]1CCCN1C(=O)[C@@H](NC(=O)CCCCCNC(=O)c1ccccn1)C(C)C)C(=O)c1nnc(-c2ccccc2)o1 [AI-158] is ____.
220

--- query ---
Fill in the blank: the reported Ki of Cc1cccc(Cc2nnc(C(=O)[C@@H](NC(=O)[C@@H]3CCCN3C(=O)[C@@H](NC(=O)OCc3ccccc3)C(C)C)C(C)C)o2)c1 [CE-2072, reference compound] is ____.
240
